Biological target: MCH-2 (Homo sapiens)
Sequence (P55212 24-179 limits assumed): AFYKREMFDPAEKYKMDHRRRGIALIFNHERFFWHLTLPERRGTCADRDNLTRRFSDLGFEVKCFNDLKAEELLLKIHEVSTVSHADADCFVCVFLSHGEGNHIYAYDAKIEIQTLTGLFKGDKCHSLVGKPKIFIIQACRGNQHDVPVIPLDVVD
Sequence (P55212 194-293 limits assumed): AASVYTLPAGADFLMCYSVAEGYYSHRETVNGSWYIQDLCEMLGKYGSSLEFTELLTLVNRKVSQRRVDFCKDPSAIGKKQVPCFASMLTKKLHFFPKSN
Test: Dissociation constant Ki and irreversible rate constant k3 for irreversible inhibitors, Mch2
Settings: continuous assay 60 min, reaction initiated by adding enzyme
Where a SMILES comes first, the peptide text is derived from it. The star is where a group is joined. Cbz = O=C(OCc1ccccc1)*; CH2F = FC*
Ki strictly under 30 nM means class 1; at 30 nM or over means class 0.

Asked: Field: below-cutoff. Rule: recorded Ki strictly less than 30 nM. Subject: CC(C)[C@H](NC(=O)COc1ccc2ccccc2c1)C(=O)N[C@@H](CC(=O)O)C(=O)COc1c(F)c(F)cc(F)c1F
Given back: class 1

Asked: Field: below-cutoff. Rule: recorded Ki strictly less than 30 nM. Subject: CC(C)[C@H](NC(=O)COc1ccc2ccccc2c1)C(=O)NC(CC(=O)O)C(=O)CF (mixture of isomers)
Given back: class 0

Asked: Field: below-cutoff. Rule: recorded Ki strictly less than 30 nM. Subject: COC(=O)c1cc(OCC(=O)[C@H](CC(=O)O)NC(=O)[C@@H](NC(=O)COc2cccc3ccccc23)C(C)C)no1
Given back: class 0

Asked: Field: below-cutoff. Rule: recorded Ki strictly less than 30 nM. Subject: CC(C)[C@H](NC(=O)COc1cccc2ccccc12)C(=O)N[C@@H](CC(=O)O)C(=O)COP(=O)(Cc1ccccc1)c1ccccc1 (stereo partly shown)
Given back: class 1

Asked: Field: below-cutoff. Rule: recorded Ki strictly less than 30 nM. Subject: CC(C)C[C@H](NC(=O)COc1ccccc1-c1ccccc1)C(=O)N[C@@H](CC(=O)O)C(=O)COc1c(F)c(F)cc(F)c1F
Given back: class 1

Asked: Field: below-cutoff. Rule: recorded Ki strictly less than 30 nM. Subject: CC(C)[C@H](NC(=O)COc1ccc2ccccc2c1)C(=O)N[C@@H](CC(=O)O)C(=O)COc1c(F)cc(F)cc1F
Given back: class 0

Asked: Field: below-cutoff. Rule: recorded Ki strictly less than 30 nM. Subject: CC(C)[C@H](NC(=O)COc1cccc2ccccc12)C(=O)N[C@@H](CC(=O)O)C(=O)COP(C)(C)=O
Given back: class 0

Asked: Field: below-cutoff. Rule: recorded Ki strictly less than 30 nM. Subject: CC(C)[C@H](NC(=O)COc1cccc2ccccc12)C(=O)N[C@@H](CC(=O)O)C(=O)COc1c(F)ccc(F)c1F
Given back: class 0

Asked: Field: below-cutoff. Rule: recorded Ki strictly less than 30 nM. Subject: CC(C)[C@H](NC(=O)COc1cccc2ccccc12)C(=O)N[C@@H](CC(=O)O)C(=O)COc1cccc(F)c1F
Given back: class 0

Asked: Field: below-cutoff. Rule: recorded Ki strictly less than 30 nM. Subject: CC(C)[C@H](NC(=O)COc1cccc2ccccc12)C(=O)N[C@@H](CC(=O)O)C(=O)COc1c(F)c(F)cc(F)c1F
Given back: class 1

Asked: Field: below-cutoff. Rule: recorded Ki strictly less than 30 nM. Subject: CC(C)[C@H](NC(=O)CCOc1cccc2ccccc12)C(=O)NC(CC(=O)O)C(=O)CF (mixture of isomers)
Given back: class 0

Asked: Field: below-cutoff. Rule: recorded Ki strictly less than 30 nM. Subject: CC(C)[C@H](NC(=O)COc1cccc2ccccc12)C(=O)N[C@@H](CC(=O)O)C(=O)COc1cc(C(F)(F)F)nn1-c1ccccc1
Given back: class 1

Asked: Field: below-cutoff. Rule: recorded Ki strictly less than 30 nM. Subject: CC(NC(=O)C(NC(=O)OCc1ccccc1)C(C)C)C(=O)NC(CC(=O)O)C(=O)CF (stereo not drawn) [refer., Cbz-ValAlaAsp-CH2F, reference compound] (Cbz-Val-Ala-Asp-CH2F; configuration not given here)
Given back: class 0

----------
biological target: UniProtKB P55212; test: Dissociation constant Ki and irreversible rate constant k3 for irreversible inhibitors, Mch2; type: biochemical; settings: continuous assay 60 min, reaction initiated by adding enzyme
observationType: MCH-2 k3/Ki

Asked: Entry CC(C)C(NC(=O)COc1ccccc1-c1ccccc1)C(=O)NC(CC(=O)O)C(=O)CF (stereo not drawn) has what MCH-2 k3/Ki?
Given back: 50,000 M^−1s^−1

Asked: Entry CC(C)[C@H](NC(=O)CCOc1cccc2ccccc12)C(=O)N[C@@H](CC(=O)O)C(=O)COc1cc(C(F)(F)F)n(-c2ccccc2)n1 has what MCH-2 k3/Ki?
Given back: 15,000 M^−1s^−1

Asked: Entry CC(C)[C@H](NC(=O)COc1cccc2ccccc12)C(=O)N[C@@H](CC(=O)O)C(=O)COn1nnc2ccccc2c1=O has what MCH-2 k3/Ki?
Given back: 44,000 M^−1s^−1

----------
target: mICE (Mus musculus); experiment: Fluorescence enzyme assay, IC50 determination, ICE; format: biochemical; conditions: Table 3; method of Preparation 3A; read-out: mICE I50
Sequence (P29452 123-296 limits assumed): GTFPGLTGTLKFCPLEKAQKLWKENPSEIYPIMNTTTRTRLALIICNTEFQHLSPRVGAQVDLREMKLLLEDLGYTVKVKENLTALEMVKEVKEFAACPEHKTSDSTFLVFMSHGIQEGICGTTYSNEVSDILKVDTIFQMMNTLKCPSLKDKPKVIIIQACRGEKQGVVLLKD
Sequence (P29452 315-402 limits assumed): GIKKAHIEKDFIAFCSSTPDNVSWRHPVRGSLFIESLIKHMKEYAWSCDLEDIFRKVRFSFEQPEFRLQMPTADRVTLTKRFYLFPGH
IC50 strictly under 1 µM means criterion met; at 1 µM or over means criterion not met.

Asked: Field: below-cutoff. Rule: recorded IC50 strictly less than 1 µM. Subject: CC(C)C[C@H](NC(=O)COc1ccccc1)C(=O)N[C@H](C=O)CC(=O)O
Given back: criterion not met

Asked: Field: below-cutoff. Rule: recorded IC50 strictly less than 1 µM. Subject: CC(C)C[C@H](NC(=O)CSc1cccc2ccccc12)C(=O)N[C@H](C=O)CC(=O)O
Given back: criterion not met

----------
target: MCH-5 (Homo sapiens, UniProt Q14790); experiment: Fluorescence enzyme assay, IC50 determination, Mch5; format: biochemical; conditions: Ac-DEVD-AMC substrate, 30 min preincubation, room temperature; read-out: MCH-5 IC50
Sequence (Q14790 217-374 limits assumed, species assumed): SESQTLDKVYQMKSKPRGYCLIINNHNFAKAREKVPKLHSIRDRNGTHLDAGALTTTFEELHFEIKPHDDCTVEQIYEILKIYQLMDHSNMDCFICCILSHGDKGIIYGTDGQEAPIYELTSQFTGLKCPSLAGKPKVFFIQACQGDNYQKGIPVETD
Sequence (Q14790 385-479 limits assumed, species assumed): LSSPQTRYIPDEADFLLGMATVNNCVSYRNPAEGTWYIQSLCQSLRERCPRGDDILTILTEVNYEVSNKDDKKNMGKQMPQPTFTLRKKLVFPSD
Where a SMILES comes first, the peptide text is derived from it. The star is where a group is joined. Cbz = O=C(OCc1ccccc1)*
observationType: pIC50
Note on units: pIC50 is unitless, being -log10 of a concentration expressed in mol/L.

Worked cases, pIC50 given:
CC(C)C[C@H](NC(=O)[C@@H](CCC(=O)O)Oc1cccc2ccccc12)C(=O)N[C@H](C=O)CC(=O)O [Example 4]; 7.51
CC(C)[C@H](NC(=O)OCc1ccccc1)C(=O)N[C@@H](C)C(=O)N[C@H](C=O)CC(=O)O [reference, Cbz-ValAlaAsp-H, reference compound] (Cbz-Val-Ala-Asp-aldehyde); 5.53

Asked: Entry O=C[C@H](CC(=O)O)NC(=O)[C@@H]1Cc2ccccc2N1C(=O)COc1cccc2ccccc12 [Example 186] has what pIC50?
Given back: 4.40

Asked: Entry CC(C)[C@H](NC(=O)COc1c(C(=O)O)ccc2ccccc12)C(=O)N[C@H](C=O)CC(=O)O [Example 6] has what pIC50?
Given back: 7.32

Asked: Entry CC(C)C[C@H](NC(=O)COc1cccc2ccccc12)C(=O)N[C@H](C=O)CC(=O)O [Example 1] has what pIC50?
Given back: 6.17

Asked: Entry CC(C)C[C@H](NC(=O)CNc1cccc2ccccc12)C(=O)N[C@H](C=O)CC(=O)O [Example 8] has what pIC50?
Given back: 8.12

Asked: Entry O=C[C@H](CC(=O)O)NC(=O)[C@@H]1CSC(c2ccccc2)N1C(=O)COc1cccc2ccccc12 (stereo partly shown) [Example 179] has what pIC50?
Given back: 5.81

----------
molecular target: MCH-2 (Homo sapiens, UniProt P55212); experiment: Dissociation constant Ki and irreversible rate constant k3 for irreversible inhibitors, Mch2; settings: continuous assay 60 min, reaction initiated by adding enzyme
observationType: Ki (nM)
Give just the numeric value; nM need not be written.

Worked cases, Ki given:
CC(C)[C@H](NC(=O)COc1ccccc1-c1ccccc1)C(=O)N[C@@H](CC(=O)O)C(=O)COC(=O)c1c(Cl)cccc1Cl; 9
O=C(O)CC(NC(=O)[C@@H]1CCCCN1C(=O)COc1cccc2ccccc12)C(=O)CF (stereo partly shown); 71
CC(C)[C@H](NC(=O)COc1cccc2ccccc12)C(=O)N[C@@H](CC(=O)O)C(=O)COc1c(-c2ccccc2)oc2ccccc2c1=O; 54
CC(C)[C@H](NC(=O)COc1ccc2ccccc2c1)C(=O)N[C@@H](CC(=O)O)C(=O)COC(=O)c1c(Cl)cccc1Cl; 15
CC(C)[C@H](NC(=O)COc1cccc2ccccc12)C(=O)N[C@@H](CC(=O)O)C(=O)COP(C)(=O)c1cccc2ccccc12 (stereo partly shown); 15

Asked: What measured Ki is associated with CC(C)[C@H](NC(=O)COc1cccc2ccccc12)C(=O)N[C@@H](CC(=O)O)C(=O)COc1ccccc1F on MCH-2 (Homo sapiens, UniProt P55212)?
Given back: 336

Asked: What measured Ki is associated with CC(C)[C@H](NC(=O)COc1cccc2ccccc12)C(=O)N[C@@H](CC(=O)O)C(=O)COc1cc(F)cc(F)c1 on MCH-2 (Homo sapiens, UniProt P55212)?
Given back: 862

Asked: What measured Ki is associated with CC(C)[C@H](NC(=O)COc1cccc2ccccc12)C(=O)N[C@@H](CC(=O)O)C(=O)COP(C)(=O)c1ccccc1 (stereo partly shown) on MCH-2 (Homo sapiens, UniProt P55212)?
Given back: 37

Asked: What measured Ki is associated with CC(C)[C@H](NC(=O)COc1cccc2ccccc12)C(=O)N[C@@H](CC(=O)O)C(=O)COc1cc(F)ccc1F on MCH-2 (Homo sapiens, UniProt P55212)?
Given back: 357

Asked: What measured Ki is associated with CC(C)[C@H](NC(=O)COc1cccc2ccccc12)C(=O)N[C@@H](CC(=O)O)C(=O)COc1ccnc(C(F)(F)F)n1 on MCH-2 (Homo sapiens, UniProt P55212)?
Given back: 120

Asked: What measured Ki is associated with CC(C)C[C@H](NC(=O)COc1c(C(=O)O)ccc2ccccc12)C(=O)N[C@@H](CC(=O)O)C(=O)COc1c(F)c(F)cc(F)c1F on MCH-2 (Homo sapiens, UniProt P55212)?
Given back: 42

Asked: What measured Ki is associated with CC(C)[C@H](NC(=O)COc1cccc2ccccc12)C(=O)N[C@@H](CC(=O)O)C(=O)COn1nnc2ccccc2c1=O on MCH-2 (Homo sapiens, UniProt P55212)?
Given back: 42

Asked: What measured Ki is associated with CC(C)C[C@H](NC(=O)COc1ccccc1-c1ccccc1)C(=O)N[C@@H](CC(=O)O)C(=O)COC(=O)c1c(Cl)cccc1Cl on MCH-2 (Homo sapiens, UniProt P55212)?
Given back: 29
